The values you see were collected from the RNAGym collection of RNA variant scans (doi:10.7554/elife.90254).

B1: LINE1-full (parent)
chain: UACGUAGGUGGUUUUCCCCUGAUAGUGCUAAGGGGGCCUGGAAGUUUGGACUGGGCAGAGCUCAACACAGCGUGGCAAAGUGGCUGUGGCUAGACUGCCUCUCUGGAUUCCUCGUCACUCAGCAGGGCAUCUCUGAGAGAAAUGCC

variants of: B1; test: self-cleavage, relative activity (ratio to wild type); higher = more cleavage; in vitro, sequencing; the parent is a self-cleaving ribozyme
EXPERIMENTAL ENDPOINT: self-cleavage
Note: the reply should be a number with no unit written.

Q: Which self-cleavage is listed for G33A A138U ?
Result: 1.19

Q: Further, for C19G U85C ?
Result: 0.24

Q: Try the variant A79G G93U
Result: 0.06

Q: One more variant: U87C U108A
Result: 0.15
